biological target: Proteinase-activated receptor 1 (Homo sapiens); assay: Inhibition of [3H]S-(p-F-Phe)-Har-L-Har-KY-NH2 binding to a thrombin receptor (PAR-1) membrane preparation.
Sequence (P25116 whole entry): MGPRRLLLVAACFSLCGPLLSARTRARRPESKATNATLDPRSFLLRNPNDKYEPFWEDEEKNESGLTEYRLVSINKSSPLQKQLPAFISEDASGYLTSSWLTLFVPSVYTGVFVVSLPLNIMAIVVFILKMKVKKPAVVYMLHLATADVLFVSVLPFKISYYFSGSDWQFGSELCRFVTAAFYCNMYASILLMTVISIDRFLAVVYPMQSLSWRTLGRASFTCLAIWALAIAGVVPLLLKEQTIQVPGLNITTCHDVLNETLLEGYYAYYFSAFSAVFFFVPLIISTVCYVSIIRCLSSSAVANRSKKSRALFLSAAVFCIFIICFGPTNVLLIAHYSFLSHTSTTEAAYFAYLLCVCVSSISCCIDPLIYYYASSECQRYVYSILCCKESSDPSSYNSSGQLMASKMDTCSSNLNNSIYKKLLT
pIC50: −log10 of the molar value. Numbered stars: 1 amine (or outer) side, 2 acyl side, 3 side chain; on linkers, the order of the positions; unused ones are H or OH. Square brackets hold non-standard residues; d marks the D form. Peptide text beside a SMILES is read from it. Phe(4-F)ψ(2,4-Thz) = O=C(c1csc([C@H](Cc2ccc(F)cc2)N[*:1])n1)[*:2]; Nphe = O=C(O)CNCc1ccccc1
Endpoint Name: pIC50

The following molecules have reported results that may help.
Molecule	pIC50
CNCC(=O)N[C@@H](Cc1ccc(F)cc1)c1nc(C(=O)N[C@@H](CCCCN)C(=O)N[C@@H](CCCNC(=N)N)C(=O)NCCc2ccccc2)cs1	< 4.00
CC[C@H](C)[C@H](N)C(=O)N[C@@H](Cc1ccc(F)cc1)c1nc(C(=O)N(CC(=O)N[C@@H](CCCN=C(N)N)C(=O)N[C@@H](Cc2ccccc2)C(N)=O)Cc2ccccc2)cs1 (H-I[Phe(4-F)ψ(2,4-Thz)][Nphe]RF-NH2)	< 4.00

// moving on: another record for pIC50
Which pIC50 value is on record for CNCC(=O)N[C@@H](Cc1ccc(F)cc1)c1nc(C(=O)N2CCCC(C(=O)N[C@@H](CCCNC(=N)N)C(=O)N[C@@H](Cc3ccccc3)C(N)=O)C2)cs1 (stereo partly drawn) ?
< 4.00
